- experimental-protocol: Plasma pharmacokinetics of BMS-188797 in patients, cycle 1 (HPLC, noncompartmental analysis)
- Format: in vivo, human
- experimental-conditions: human, plasma, intravenous, 110 mg m−2 1-h infusion with cisplatin 75 mg m−2, cycle 1, n=12, mean±s.d.
reported-metric: Cmax (ng/mL)
Use ng/mL as the unit, but write only the number.

Cmax reported for this compound `COC(=O)O[C@@]12CO[C@@H]1C[C@H](O)[C@@]1(C)C(=O)[C@H](OC(C)=O)C3=C(C)[C@@H](OC(=O)[C@H](O)[C@@H](NC(=O)c4ccccc4)c4ccccc4)C[C@@](O)([C@@H](OC(=O)c4ccccc4)[C@H]21)C3(C)C` : 3370

###

- experimental-protocol: Plasma pharmacokinetics of BMS-188797 in patients, cycle 1 (HPLC, noncompartmental analysis)
- Assay type: in vivo, human
- experimental-conditions: human, plasma, intravenous, 80 mg m−2 1-h infusion with cisplatin 75 mg m−2, cycle 1, n=3, mean±s.d.
reported-metric: Cmax (ng/mL)
Use ng/mL as the unit, but write only the number.

Cmax reported for this molecule `COC(=O)O[C@@]12CO[C@@H]1C[C@H](O)[C@@]1(C)C(=O)[C@H](OC(C)=O)C3=C(C)[C@@H](OC(=O)[C@H](O)[C@@H](NC(=O)c4ccccc4)c4ccccc4)C[C@@](O)([C@@H](OC(=O)c4ccccc4)[C@H]21)C3(C)C` : 2650

###

- experimental-protocol: Plasma pharmacokinetics of BMS-188797 in patients, cycle 1 (HPLC, noncompartmental analysis)
- Assay type: in vivo, human
- experimental-conditions: human, plasma, intravenous, 110 mg m−2 1-h infusion with cisplatin 75 mg m−2, cycle 1, n=12, mean±s.d.
reported-metric: AUC(0-inf) (ng·h/mL)
Use ng·h/mL as the unit, but write only the number.

AUC(0-inf) reported for this compound `COC(=O)O[C@@]12CO[C@@H]1C[C@H](O)[C@@]1(C)C(=O)[C@H](OC(C)=O)C3=C(C)[C@@H](OC(=O)[C@H](O)[C@@H](NC(=O)c4ccccc4)c4ccccc4)C[C@@](O)([C@@H](OC(=O)c4ccccc4)[C@H]21)C3(C)C` : 5870

###

- experimental-protocol: Plasma pharmacokinetics of BMS-188797 in patients, cycle 1 (HPLC, noncompartmental analysis)
- Format: in vivo, human
- experimental-conditions: human, plasma, intravenous, 150 mg m−2 1-h infusion with cisplatin 75 mg m−2, cycle 1, n=1
reported-metric: Cmax (ng/mL)
Use ng/mL as the unit, but write only the number.

Cmax reported for this molecule COC(=O)O[C@@]12CO[C@@H]1C[C@H](O)[C@@]1(C)C(=O)[C@H](OC(C)=O)C3=C(C)[C@@H](OC(=O)[C@H](O)[C@@H](NC(=O)c4ccccc4)c4ccccc4)C[C@@](O)([C@@H](OC(=O)c4ccccc4)[C@H]21)C3(C)C [BMS-188797] : 5770

###

- experimental-protocol: Plasma pharmacokinetics of BMS-188797 in patients, cycle 1 (HPLC, noncompartmental analysis)
- Type: in vivo, human
- experimental-conditions: human, plasma, intravenous, 80 mg m−2 1-h infusion with cisplatin 75 mg m−2, cycle 1, n=3, mean±s.d.; read-out: t1/2 (converted)
reported-metric: half-life (h)
Use h as the unit, but write only the number.

half-life reported for this compound `COC(=O)O[C@@]12CO[C@@H]1C[C@H](O)[C@@]1(C)C(=O)[C@H](OC(C)=O)C3=C(C)[C@@H](OC(=O)[C@H](O)[C@@H](NC(=O)c4ccccc4)c4ccccc4)C[C@@](O)([C@@H](OC(=O)c4ccccc4)[C@H]21)C3(C)C` : 31
